# Target or system: Motilin receptor (Homo sapiens, UniProt O43193)
# Sequence (O43193 whole entry): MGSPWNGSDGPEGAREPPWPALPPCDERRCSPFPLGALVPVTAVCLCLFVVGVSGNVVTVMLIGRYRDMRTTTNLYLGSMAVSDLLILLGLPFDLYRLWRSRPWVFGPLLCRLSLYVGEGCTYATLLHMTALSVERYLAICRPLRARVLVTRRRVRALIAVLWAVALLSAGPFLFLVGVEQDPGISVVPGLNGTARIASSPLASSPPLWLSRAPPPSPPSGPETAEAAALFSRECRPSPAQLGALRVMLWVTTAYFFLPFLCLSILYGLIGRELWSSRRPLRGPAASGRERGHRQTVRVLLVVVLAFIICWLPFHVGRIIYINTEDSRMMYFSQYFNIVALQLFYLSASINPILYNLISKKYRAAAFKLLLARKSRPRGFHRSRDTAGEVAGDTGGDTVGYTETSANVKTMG
# Assay summary: Compound was tested for in vitro motilin receptor binding affinity
Please go through the items and note down their IC50.
One number for each entry, in nM.

Answered examples (4):
CCC1OC(=O)C(C)C(O[C@H]2C[C@@](C)(OC)[C@@H](O)C(C)O2)C(C)[C@@H](OC2OC(C)CC(N(C)C)[C@H]2O)[C@]2(C)CC(C)=C(O2)[C@H](C)[C@@H](O)[C@]1(C)OC (stereo not given in full) | 7.59
CCC1OC(=O)C(C)C(O[C@H]2C[C@@](C)(OC)[C@@H](O)C(C)O2)C(C)[C@@H](OC2OC(C)CC(N(C)C(C)C)[C@H]2O)[C@]2(C)CC(C)=C(O2)[C@H](C)[C@@H](O)[C@]1(C)OC (stereo not given in full) | 6.92
CCC1OC(=O)C(C)C(O[C@H]2C[C@@](C)(OC)[C@@H](O)C(C)O2)C(C)[C@@H](OC2OC(C)CC(N(C)C)[C@H]2O)[C@]2(C)CC(C)C3(O[C@]1(C)[C@H](O)[C@H]3C)O2 (stereo not given in full) | 155
CCC1OC(=O)C(C)C(O[C@H]2C[C@@](C)(OC)[C@@H](O)C(C)O2)C(C)[C@@H](OC2OC(C)CC(N(C)CC)[C@H]2O)[C@]2(C)CC(C)=C(O2)[C@H](C)[C@@H](O)[C@]1(C)OC (stereo not given in full) | 4.68

Moving on to the next molecule.
*Q* Report measured IC50; entry is CC[C@H]1OC(=O)[C@H](C)[C@@H](O[C@H]2C[C@@](C)(OC)[C@@H](O)[C@H](C)O2)[C@H](C)[C@@H](OC2O[C@H](C)C[C@H](N(C)C)[C@H]2O)C2(C)CC(C)=C(O2)[C@H](C)[C@@H](O)[C@]1(C)O (single isomer, unassigned)
*A* 3.39

====

# Target or system: Motilin receptor (Homo sapiens)
# Assay summary: Compound was tested for in vitro motilin receptor binding affinity after treatment with hydrochloric acid solution (pH 2.5)
pIC50: −log10 of the molar value.
Where pIC50 equals or exceeds 7, the correct label is Y; where it does not, the label is N.

A selection of reference data follows.
CCC1OC(=O)C(C)C(O[C@H]2C[C@@](C)(OC)[C@@H](O)C(C)O2)C(C)[C@@H](OC2OC(C)CC(N(C)C(C)C)[C@H]2O)[C@]2(C)CC(C)=C(O2)[C@H](C)[C@@H](O)[C@]1(C)OC (stereo not given in full) | Y
CCC1OC(=O)C(C)C(O[C@H]2C[C@@](C)(OC)[C@@H](O)C(C)O2)C(C)[C@@H](OC2OC(C)CC(N(C)C)[C@H]2O)[C@]2(C)CC(C)C3(O[C@]1(C)[C@H](O)[C@H]3C)O2 (stereo not given in full) | N
CCC1OC(=O)C(C)C(O[C@H]2C[C@@](C)(OC)[C@@H](O)C(C)O2)C(C)[C@@H](OC2OC(C)CC(N(C)C)[C@H]2O)[C@]2(C)CC(C)=C(O2)[C@H](C)[C@@H](O)[C@]1(C)OC (stereo not given in full) | Y
CC[C@H]1OC(=O)[C@H](C)[C@@H](O[C@H]2C[C@@](C)(OC)[C@@H](O)[C@H](C)O2)[C@H](C)[C@@H](OC2O[C@H](C)C[C@H](N(C)C)[C@H]2O)C2(C)CC(C)=C(O2)[C@H](C)[C@@H](O)[C@]1(C)O (single isomer, unassigned) | N

Consider now this further compound.
*Q* Quick check: does CCC1OC(=O)C(C)C(O[C@H]2C[C@@](C)(OC)[C@@H](O)C(C)O2)C(C)[C@@H](OC2OC(C)CC(N(C)CC)[C@H]2O)[C@]2(C)CC(C)=C(O2)[C@H](C)[C@@H](O)[C@]1(C)OC (stereo not given in full) have pIC50 greater than or equal to 7?
*A* Y

====

# Test system: Canis familiaris
# Assay summary: Motor index (MI) was reported in vivo for smooth muscle contractile activity after i.v. administration of the compound
# Format: functional, Canis lupus familiaris, Muscle tissue
Measurement kind: MI100 (µg/kg)
Numbers only, in µg/kg.

Go through the list and state MI100 for each entry.
1. CC[C@H]1OC(=O)[C@H](C)[C@@H](O[C@H]2C[C@@](C)(OC)[C@@H](O)[C@H](C)O2)[C@H](C)[C@@H](OC2O[C@H](C)C[C@H](N(C)C)[C@H]2O)C2(C)CC(C)=C(O2)[C@H](C)[C@@H](O)[C@]1(C)O (single isomer, unassigned)
2. CCC1OC(=O)C(C)C(O[C@H]2C[C@@](C)(OC)[C@@H](O)C(C)O2)C(C)[C@@H](OC2OC(C)CC(N(C)C(C)C)[C@H]2O)[C@]2(C)CC(C)=C(O2)[C@H](C)[C@@H](O)[C@]1(C)OC (some centres undefined)
3. CC[C@H]1OC(=O)[C@H](C)[C@@H](O[C@H]2C[C@@](C)(OC)[C@@H](O)[C@H](C)O2)[C@H](C)[C@@H](OC2O[C@H](C)C[C@H](N(C)C)[C@H]2O)C(C)(O)C[C@@H](C)C(=O)[C@H](C)[C@@H](O)[C@]1(C)O (single isomer, unassigned) [ERYTHROMYCIN]

*A*
1. 1
2. 0.44
3. 32.3
